All figures here come from ChEMBL document CHEMBL3871307.

- assayMethodText: Inhibition of IKr (unknown origin) expressed in HEK293 cells
- Type: cell-based, Homo sapiens
measureName: IC50

# IC50 (molecule: CO[C@H]1C[C@H](Oc2cc(F)c(F)c(-c3ccc4c(c3)CC[C@H](CCC(=O)O)O4)n2)C1 ) is > 60 µM

* * *

- assayMethodText: Clearance in rat plasma at 0.1 mg/kg administered as iv casette dose by LC/MS/MS analysis
- Type: ADME, organism-based
One threshold, 3 mL/min/kg, splits the recorded clearance values: lower ones are MET, equal or higher ones are NOT MET.

> print(dat)
                                   compound  assignedlabel
1  CO[C@H]1C[C@H](Oc2cc(F)c(F)c(-c3ccc4c(c3)CC[C@H](CCC(=O)O)O4)n2)C1            MET
2  O=C(O)CC[C@H]1CCc2cc(-c3nc(OC4CCC4)ccc3F)ccc2O1        NOT MET
3  COc1cc(Oc2ncc(C)s2)cc(-c2ccc3c(c2)CC[C@H](CCC(=O)O)O3)c1F            MET
4  O=C(O)CC[C@H]1CCc2cc(-c3cc(OC4CCC4)cc(F)c3F)ccc2O1        NOT MET

Could you please tell me whether clearance recorded for O=C(O)CC[C@H]1CCc2cc(-c3cc(OC(F)(F)F)ccc3F)ccc2O1 is less than 3 mL/min/kg?
NOT MET

Could you please tell me whether clearance recorded for COc1cc(O[C@H]2C[C@H](OC)C2)nc(-c2ccc3c(c2)CC[C@H](CCC(=O)O)O3)c1F is less than 3 mL/min/kg?
NOT MET

Could you please tell me whether clearance recorded for Cc1cnc(Oc2cc(Cl)c(F)c(-c3ccc4c(c3)CC[C@H](CCC(=O)O)O4)c2)s1 is less than 3 mL/min/kg?
MET

* * *

- assayedTarget: Free fatty acid receptor 1 (Homo sapiens, UniProt O14842)
- Sequence (O14842 whole entry): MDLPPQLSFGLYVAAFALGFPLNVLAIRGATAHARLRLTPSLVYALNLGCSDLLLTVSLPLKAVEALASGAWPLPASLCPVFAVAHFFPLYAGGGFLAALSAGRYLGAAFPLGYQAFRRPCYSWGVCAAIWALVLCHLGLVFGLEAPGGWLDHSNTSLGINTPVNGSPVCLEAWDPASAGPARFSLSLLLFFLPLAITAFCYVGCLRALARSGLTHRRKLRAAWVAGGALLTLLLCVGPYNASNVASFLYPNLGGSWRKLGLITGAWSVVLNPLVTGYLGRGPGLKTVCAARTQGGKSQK
- assayMethodText: Agonist activity at human GPR40 expressed in HEK293 cells assessed as increase in IP1 accumulation after 60 mins by HTRF assay
pEC50: −log10 of the molar value.
measureName: pEC50

> print(dat)
                                   compound                             assayedtarget  testvalue
1  Fc1ccc(OC2CCC2)cc1-c1ccc2c(c1)CC[C@H](CCc1nnn[nH]1)O2  Free fatty acid receptor 1 (Homo sapiens, UniProt O14842)     < 5.00
2  CO[C@H]1C[C@H](Oc2cc(F)c(F)c(-c3ccc4c(c3)CC[C@H](CCC(=O)O)O4)n2)C1  Free fatty acid receptor 1 (Homo sapiens, UniProt O14842)     < 5.00
3  O=C(O)CC[C@@H]1CCc2cc(-c3cc(OC(F)(F)F)ccc3F)ccc2O1  Free fatty acid receptor 1 (Homo sapiens, UniProt O14842)     < 5.00
4  O=C(O)CC[C@H]1CCc2cc(-c3nc(OC4CCC4)ccc3F)ccc2O1  Free fatty acid receptor 1 (Homo sapiens, UniProt O14842)     < 5.00
5  COc1cc(OC2CCC2)cc(-c2ccc3c(c2)CC[C@H]([C@@H]2C[C@H]2C(=O)O)O3)c1F  Free fatty acid receptor 1 (Homo sapiens, UniProt O14842)     < 5.00

# pEC50 (compound: CO[C@H]1C[C@H](Oc2cc(F)c(F)c(-c3ccc4c(c3)CC[C@H](CCc3nnn[nH]3)O4)c2)C1 ) is < 5.00

# pEC50 (compound: O=C(O)CC[C@H]1CCc2cc(-c3cc(OC4CCC4)cc(F)c3F)ccc2O1 ) is < 5.00

# pEC50 (compound: COc1cc(OC2CCC2)nc(-c2ccc3c(c2)CC[C@H]([C@@H]2C[C@H]2C(=O)O)O3)c1F ) is < 5.00

# pEC50 (compound: O=C(O)CC[C@H]1CCc2cc(-c3cc(OC(F)(F)F)ccc3F)ccc2O1 ) is 5.68

# pEC50 (compound: COc1cc(Oc2ncc(C)s2)cc(-c2ccc3c(c2)CC[C@H](CCC(=O)O)O3)c1F ) is < 5.00

# pEC50 (compound: CO[C@H]1C[C@H](Oc2cc(F)c(F)c(-c3ccc4c(c3)CC[C@H]([C@@H]3C[C@H]3C(=O)O)O4)c2)C1 ) is < 5.00

# pEC50 (compound: COc1cc(O[C@H]2C[C@H](OC)C2)nc(-c2ccc3c(c2)CC[C@H](CCC(=O)O)O3)c1F ) is < 5.00

# pEC50 (compound: COc1cc(OC2CCC2)cc(-c2ccc3c(c2)CC[C@H](CCC(=O)O)O3)c1F ) is < 5.00

# pEC50 (compound: COc1cc(OC(F)(F)F)cc(-c2ccc3c(c2)CC[C@H](CCC(=O)O)O3)c1F ) is 5.36

# pEC50 (compound: COc1cc(OC2CC2)cc(-c2ccc3c(c2)CC[C@H](CCc2nnn[nH]2)O3)c1F ) is < 5.00

# pEC50 (compound: O=C(O)CC[C@H]1CCc2cc(-c3cc(OC4CCC4)cc(Cl)c3F)ccc2O1 ) is < 5.00

# pEC50 (compound: O=C(O)CC[C@H]1CCc2cc(-c3cc(OC(F)(F)F)cc(Cl)c3F)ccc2O1 ) is 5.66

# pEC50 (compound: COc1cc(O[C@H]2C[C@H](OC)C2)cc(-c2ccc3c(c2)CC[C@H]([C@@H]2C[C@H]2C(=O)O)O3)c1F ) is < 5.00
